- Test system: PPARa:RXRa (NR concentration 270 nM, RXRa partner concentration 90 nM)
- test: PBM binding z-score (relative to random genomic background probes); higher = stronger binding; sequences stand for … in GC…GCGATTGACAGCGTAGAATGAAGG
Give PBM binding z-score for every item shown.
Could you respond with only the numeric value?

State its PBM binding z-score: TTACCACGGTGAAAGGTCGTTGATGCACGCCTTG
4.03

State its PBM binding z-score: ATCTCTTGGTAACAAGTTCAGTGAAAGAGAGGAC
0.547

State its PBM binding z-score: GCAACGAGGGCATTCGAGTTGATAGCATGGCGAT
1.15

State its PBM binding z-score: AGTCAAAGTTAAGGACGAGGTAACGTAAAGCACG
0.245

State its PBM binding z-score: CTCGAAACGTCGGTTGAGGTGAGTATACGGATAA
-0.163

State its PBM binding z-score: ACTAGTTGGTCAGCTGTGGTCACACACAATTCGG
0.0515

Each recorded value in this set is attributed to the supplement of paper PMC6555819.
